test: Toxicity in Zebra fish AB embryo assessed as mortality rate at 1.25 uM measured after 24 to 72 hrs; set-up: species or system Danio rerio; conditions: AB, zebrafish, time 24-72 hrs
measure name: mortality at 1.25 µM (%)
Note: unit % is implicit; provide only the numeric part.

Ask: Give the measured mortality at 1.25 µM for CC1=C(O)C(=O)C=C2C1=CC=C1[C@@]2(C)CC[C@@]2(C)[C@@H]3C[C@](C)(C(=O)O)CC[C@]3(C)CC[C@]12C [CELASTROL]
Result: 100

====

test system: SW-620; experiment: Antiproliferative activity against human SW620 cells assessed as inhibition of cell growth measured after 24 hrs by MTT assay; type: functional, cell-based; settings: SW-620, 24 h
measure name: pIC50
// pIC50: -log10(molar conc.)

Ask: Determine its reported pIC50: `CCN(CC)CCCNC(=O)c1cc2cc(Nc3nccc(-c4sc(NC)nc4C)n3)ccc2[nH]1`
Result: 4.74
